Test: in vivo
Conditions: po
Each record here notes measured LD50.
Report only the number, with the unit mg/kg understood.

{"MOLECULAR_STRING": "Cc1c(N(C)C)c(=O)n(-c2ccccc2)n1C", "LD50 [mg/kg]": 800}

// moving on: another record for LD50
For CC(=O)Oc1ccccc1C(=O)O , what is its reported LD50?
1070
